Entries and their IC50, SBE-luciferase reporter in HEK293 cells values follow.
TARGET_DESC: T1, Activin A (UniProt P08476 311-426)
T1 sequence (looked up): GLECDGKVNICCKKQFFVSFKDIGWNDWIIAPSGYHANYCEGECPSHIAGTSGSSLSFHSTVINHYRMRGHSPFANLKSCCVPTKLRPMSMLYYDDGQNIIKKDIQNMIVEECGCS
RUN_DESCRIPTION: cell-based or functional assay
Write the number in µg/mL without appending the unit.

ActRIIA-B3 (SEQ ID NO: 97) chimera-Fc protein (Fc fusion, Tested as chimera-Fc protein; not shown: linker (if any) and Fc domain) GAILGRSETQECLFFNANWEKDRTNQTGVEPCYGDKDKRLHCYASWRNSSGSIEIVKQGCWLDDINCYDRTDCVEKKDSPEVYFCCCEGNMCNEKFSYFPEMEVTQPTS: 0.14
ActRIIA-B2B4 (SEQ ID NO: 103) chimera-Fc protein (Fc fusion, Tested as chimera-Fc protein; not shown: linker (if any) and Fc domain) GAILGRSETQECLEFNANWEKDRTNQSGLERCYGDKDKRRHCFATWKNISGTIELVKKGCWLDDINCYDRTDCVEKKDSPEVYFCCCEGNMCNEKFSYFPEMEVTQPTS: 0.7

What does the record list as IC50, SBE-luciferase reporter in HEK293 cells for ActRIIA-A1 (SEQ ID NO: 104) chimera-Fc protein (Fc fusion, Tested as chimera-Fc protein; not shown: linker (if any) and Fc domain) GRGEAETRECLFFNANWEKDRTNQTGVEPCYGDKDKRRHCFATWKNISGSIEIVKQGCWLDDINCYDRTDCVEKKDSPEVYFCCCEGNMCNEKFSYFPEMEVTQPTS ?
0.64
